- measured-on: OsSMF1 (Oryza sativa, UniProt Q6ZLB0 1-436)
- Sequence: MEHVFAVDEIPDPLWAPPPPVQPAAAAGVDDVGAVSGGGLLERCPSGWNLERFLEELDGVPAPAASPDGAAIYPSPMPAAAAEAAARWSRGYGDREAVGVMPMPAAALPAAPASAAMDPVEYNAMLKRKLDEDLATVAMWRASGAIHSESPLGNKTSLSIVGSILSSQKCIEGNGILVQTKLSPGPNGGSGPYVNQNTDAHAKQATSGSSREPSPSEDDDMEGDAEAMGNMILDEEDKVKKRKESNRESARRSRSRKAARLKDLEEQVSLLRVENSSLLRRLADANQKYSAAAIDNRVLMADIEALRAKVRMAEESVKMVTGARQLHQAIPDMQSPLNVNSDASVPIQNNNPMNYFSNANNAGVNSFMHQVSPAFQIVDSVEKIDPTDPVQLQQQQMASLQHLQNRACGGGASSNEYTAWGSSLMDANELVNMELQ
- assay-summary: protein-binding microarray (RPBM); PBS, 2% BSA, 51.3 ng/ul salmon testes DNA, 50 uM zinc acetate, 200 nM TF, 25 C, 1 h; high values mean tight binding
- condition: protein: recombinant; tags: N-terminal polyhistidine and DsRed monomer fusion (pET32a); chain copies: 2; label: CyDye5-dUTP incorporated in the synthesized complementary strand; 3' TTTTT single-stranded linker to array surface; dsDNA, one strand shown
Over roughly 39,000 sequences, “fluorescence intensity (a.u.)” has its median near 4,300; the highest 2% begin near 39,000. This excerpt belongs to a sample that is enriched for the highest values.
readout-type: binding signal

> print(dat)
                             residue.string                               result
1  AGCTCACCGCATTGTAAAGGCCCTTACTAATCTTAGCAAGCGGAGTCACCTAGTGCAG  40300 fluorescence intensity (a.u.)
2  TATATAACCTAAAATGGAGGAAGTAGGAAATATGTAATTCCGGAGTCACCTAGTGCAG   4630 fluorescence intensity (a.u.)
3  ATAACCGCCCTAATTTACTTTAGCATACGTGGAGTACAAGCGGAGTCACCTAGTGCAG   6900 fluorescence intensity (a.u.)
4  ATTTCTACCTGACGAAGTGACGATGCACTAGCCAGCTACTCGGAGTCACCTAGTGCAG   3900 fluorescence intensity (a.u.)

# value lookup — system OsSMF1 (Oryza sativa, UniProt Q6ZLB0 1-436), readout binding signal, item ATTTAACTGCATAGAAGTGTATAAGTAAAATAATTTATTCCGGAGTCACCTAGTGCAG
4320 fluorescence intensity (a.u.)

# value lookup — system OsSMF1 (Oryza sativa, UniProt Q6ZLB0 1-436), readout binding signal, item CTTCAGGGTCTAGTCTTTTCAAACCATCGGAGTTATCGTCCGGAGTCACCTAGTGCAG
3530 fluorescence intensity (a.u.)

# value lookup — system OsSMF1 (Oryza sativa, UniProt Q6ZLB0 1-436), readout binding signal, item CTCCTGGTACGCCTCGCTCAGCTCGTCCACCGTCGCCTCCCGGAGTCACCTAGTGCAG
3750 fluorescence intensity (a.u.)

# value lookup — system OsSMF1 (Oryza sativa, UniProt Q6ZLB0 1-436), readout binding signal, item GGACACACACCCACACGCGCATCCATCCATCCATCCATCCCGGAGTCACCTAGTGCAG
3220 fluorescence intensity (a.u.)

# value lookup — system OsSMF1 (Oryza sativa, UniProt Q6ZLB0 1-436), readout binding signal, item GACGTGATAAAGAAGTTCAGATTTAGAAATAAATTTGAAGCGGAGTCACCTAGTGCAG
3820 fluorescence intensity (a.u.)

# value lookup — system OsSMF1 (Oryza sativa, UniProt Q6ZLB0 1-436), readout binding signal, item ATCGTCGTCGCCGCCGCCTCCCATGTCGTTGCTGTCGCCGCGGAGTCACCTAGTGCAG
3240 fluorescence intensity (a.u.)
